TGT: T1, human vascular endothelial growth factor receptor-2 Fc chimera (KDR-Fc) (human, UniProt P35968 20-764)
T1 construct: range 1-764; purchased from R&D Systems; also called hKDR; human VEGF-R2-Fc; not shown: human IgG1 Fc
TEST_NAME: radioactive equilibrium binding, 1 nM KDR-Fc
OUTCOME_MEASURE: Binding to 1 nM KDR, % (%)

| BINDER | Binding to 1 nM KDR, %, % |
| --- | --- |
| VR28 (designed binder, scaffold said to be unchanged from wild type 10Fn3; Flag-tagged in vitro translated protein in the radioactive assay, His6-tagged E. coli protein in BIAcore; tags left out; also called VR28 (I69T)) VSDVPRDLEVVAATPTSLLISWRHPHFPTRYYRITYGETGGNSPVQEFTVPLQPPTATISGLKPGVDYTITGYAVTVAQNDHELITPISINYRT | 3 |
| 2F10 PR3 (designed binder, tag left out) VSDVPRDLEVVAATPTSLLISWRHPHFPTRYYRITYGETGGNSPVQEFTVPLQPPTATISGLKPGVDYTITGYAVTLALFDHELLTPISINYRT | 3 |
| 2C6 PR3 (designed binder, tag left out) VSDVPRDLEVVAATPTSLLISWRHPHFPTRYYRITYGETGGNSPVQEFTVPLQPPTATISGLKPGVDYTITGYAVTVEPNGHKLAIPISINYRT | 5 |
| 4A3 PR3 (designed binder, tag left out) EVVAATPTSLLISWRHPHFPTRYYRITYGETGGNSPVQEFTVPLQPPTATISGLKPGVDYTITGYAVTVAQDEHELITPISINYRT | 6 |

[P] 2′B9-PR4 (designed binder, tag left out) VSDVPRDLEVVAATPTSLLISWRHPHFPTRYYRITYGETGGNSPVQEFTVPLQPPTATISGLKPGVDYTITGYAVTVGPTDHELLTPISINYRT
[Q] 3D11 PR3 (designed binder, tag left out) EVVAATPTSLLISWRHPHFPTRYYRITYGETGGNSPVQEFTVPLQPPTATISGLKPGVDYTITGYAVTLGQENQELITPISINYRT
Enquiry: Between P and Q , whose measured Binding to 1 nM KDR, % reads higher? Reply with the label of the item you choose.
Return: Q
